# key: entry, value: GI50
# Tested on: RXF 631
# EXPERIMENT_SUMMARY: NCI tumour cell line growth inhibition, 48 h
Activity calls are given as the source filed them. No stated cut-off is given here; in the data, active = GI50 up to about 1.1 µM and inactive = higher.

COMPOUND | GI50
CC(C(=O)c1ccc(Cl)cc1)/C(=N/NC(=O)NN)C(=O)Nc1cccc(C(F)(F)F)c1 (stereo not drawn) | > 100 µM (inactive)
Clc1ccc2c(c1)[nH]c1c2nc2sccn21 | > 100 µM (inactive)

Query (compound): "COc1ccc(C(=O)Nc2ccn(CCOC(=O)c3ccc(OC)cc3)c(=O)n2)cc1" ; field requested: GI50 > 100 µM (inactive)

---

A set of compounds tested on HCT-15, with measured GI50:
Non-standard residues stand in square brackets, D forms with d. Residues, ends and D or L forms follow the SMILES beside them. ξ: configuration not given here. *: point of attachment. ξHyp = O=C(O)C1CC(O)CN1; Cbz = O=C(OCc1ccccc1)*

Use these answered entries as a reference point.
COMPOUND | GI50
O=C(Nc1c(-c2nc3ccccc3[nH]2)sc(=S)n1-c1ccccc1)c1ccccc1 | > 100 µM
CCOP(=O)(OCC)C(C)(CC)NC(=O)C(C(F)(F)F)C(F)(F)F (stereo not given) | > 100 µM
NC(=O)CNC(=O)C1CC(O)CN1C(=O)OCc1ccccc1 (stereo not given) (Cbz-[ξHyp]-Gly-NH2) | > 100 µM
CN(C)N1C(=O)CC2(CCN(CCCC(=O)c3ccc(F)cc3)CC2)C1=O | > 100 µM

Short answer please: GI50, HCT-15, entry "O=C(CN1CCNCCN(CC(=O)N2CCCCC2)CCNCC1)N1CCCCC1" > 100 µM
